Where do the numbers come from? From ChEMBL document CHEMBL1148537.

ASSAY SYSTEM: Dihydroorotate dehydrogenase (quinone), mitochondrial (Homo sapiens)
Sequence (Q02127 whole entry): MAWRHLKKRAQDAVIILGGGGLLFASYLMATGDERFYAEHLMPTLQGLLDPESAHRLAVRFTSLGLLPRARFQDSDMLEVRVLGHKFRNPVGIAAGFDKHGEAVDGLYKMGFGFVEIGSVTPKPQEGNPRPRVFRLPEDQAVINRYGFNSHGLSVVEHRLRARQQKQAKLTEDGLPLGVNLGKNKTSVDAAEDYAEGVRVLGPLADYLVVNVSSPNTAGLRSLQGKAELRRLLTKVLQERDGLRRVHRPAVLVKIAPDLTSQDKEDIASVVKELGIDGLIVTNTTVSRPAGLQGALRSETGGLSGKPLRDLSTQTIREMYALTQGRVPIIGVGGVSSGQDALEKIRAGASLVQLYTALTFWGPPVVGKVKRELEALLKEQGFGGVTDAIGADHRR
MEASURE: IC50 (µM)
Answer with a number only, understood to be in µM.

Give its IC50 value. Item: O=C(Nc1ccccc1C(=O)O)c1ccc2ccccc2c1
13.8
